System: MCF7
RUN_DESCRIPTION: Cytotoxicity against human MCF7 cells assessed as cell viability after 72 hrs by resazurin reduction assay
Type: functional, cell-based
SETTINGS: MCF7, 72 h
QUANTITY_KIND: IC50 (µM)
Your answer should be a plain number; it is taken to be in µM.

STRUCTURE_STRING	QUANTITY_UNIT	IC50
COc1cc(/C=C/C(=O)N2CCC=CC2=O)cc(OC)c1OC	µM	6.14

// next item, IC50 requested
Query: Please look up its IC50: `COc1ccc(/C=C\c2cc(OC)c(OC)c(OC)c2)cc1O`
Response: 0.042
